tested on: SK-MEL 28; experiment: MTT cell proliferation, tumor cell lines; assay type: cell-based; conditions: Homo sapiens, SK-MEL 28, Melanoma, 96 hrs
Readout type: pIC50
Value format note: pIC50 is -log10 of concentration (mol/L); just state the number.

Answer with the recorded pIC50 of CC(C)=CCC/C(C)=C/CC/C(C)=C/CN1C(=O)c2cccc(O)c2Nc2c(O)cc(O)cc21 [ECO-04601] only.
4.85

---

Molecular target: human 5-LO (Homo sapiens, UniProt P09917)
Construct: Human peripheral blood mononuclear cells (PMNs) were isolated through a Ficoll-Paque density gradient; endogenous in cells
Sequence (P09917 1-674): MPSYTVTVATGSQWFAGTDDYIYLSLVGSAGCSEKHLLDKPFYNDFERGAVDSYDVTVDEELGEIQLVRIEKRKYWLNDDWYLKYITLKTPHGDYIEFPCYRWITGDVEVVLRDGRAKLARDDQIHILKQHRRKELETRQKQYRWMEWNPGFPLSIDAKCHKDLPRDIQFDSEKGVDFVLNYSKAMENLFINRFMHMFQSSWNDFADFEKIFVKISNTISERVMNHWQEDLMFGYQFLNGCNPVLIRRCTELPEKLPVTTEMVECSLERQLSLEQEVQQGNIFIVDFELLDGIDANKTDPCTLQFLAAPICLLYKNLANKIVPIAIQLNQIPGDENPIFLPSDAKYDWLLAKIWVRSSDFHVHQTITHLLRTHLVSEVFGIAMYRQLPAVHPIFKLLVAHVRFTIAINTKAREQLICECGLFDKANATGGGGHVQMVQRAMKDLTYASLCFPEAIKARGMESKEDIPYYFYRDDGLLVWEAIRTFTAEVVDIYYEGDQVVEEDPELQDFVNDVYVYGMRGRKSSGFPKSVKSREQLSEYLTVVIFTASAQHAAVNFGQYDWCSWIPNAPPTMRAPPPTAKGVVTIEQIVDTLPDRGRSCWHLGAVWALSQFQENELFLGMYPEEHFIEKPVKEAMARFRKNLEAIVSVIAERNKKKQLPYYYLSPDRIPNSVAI
Test: Human 5-lipoxygenase activity in stimulated PMNs (Leukotriene B4 EIA)
Settings: FIG. 8 legend
Readout type: pEC50
Value format note: pEC50 is -log10 of concentration (mol/L); just state the number.

Answer with the recorded pEC50 of CC(C)=CCC/C(C)=C/CC/C(C)=C/CN1C(=O)c2cccc(O)c2Nc2c(O)cc(O)cc21 [ECO-04601] only.
6.03
